Target: hNpr1 (Homo sapiens, UniProt P16066)
Sequence (P16066 33-1061): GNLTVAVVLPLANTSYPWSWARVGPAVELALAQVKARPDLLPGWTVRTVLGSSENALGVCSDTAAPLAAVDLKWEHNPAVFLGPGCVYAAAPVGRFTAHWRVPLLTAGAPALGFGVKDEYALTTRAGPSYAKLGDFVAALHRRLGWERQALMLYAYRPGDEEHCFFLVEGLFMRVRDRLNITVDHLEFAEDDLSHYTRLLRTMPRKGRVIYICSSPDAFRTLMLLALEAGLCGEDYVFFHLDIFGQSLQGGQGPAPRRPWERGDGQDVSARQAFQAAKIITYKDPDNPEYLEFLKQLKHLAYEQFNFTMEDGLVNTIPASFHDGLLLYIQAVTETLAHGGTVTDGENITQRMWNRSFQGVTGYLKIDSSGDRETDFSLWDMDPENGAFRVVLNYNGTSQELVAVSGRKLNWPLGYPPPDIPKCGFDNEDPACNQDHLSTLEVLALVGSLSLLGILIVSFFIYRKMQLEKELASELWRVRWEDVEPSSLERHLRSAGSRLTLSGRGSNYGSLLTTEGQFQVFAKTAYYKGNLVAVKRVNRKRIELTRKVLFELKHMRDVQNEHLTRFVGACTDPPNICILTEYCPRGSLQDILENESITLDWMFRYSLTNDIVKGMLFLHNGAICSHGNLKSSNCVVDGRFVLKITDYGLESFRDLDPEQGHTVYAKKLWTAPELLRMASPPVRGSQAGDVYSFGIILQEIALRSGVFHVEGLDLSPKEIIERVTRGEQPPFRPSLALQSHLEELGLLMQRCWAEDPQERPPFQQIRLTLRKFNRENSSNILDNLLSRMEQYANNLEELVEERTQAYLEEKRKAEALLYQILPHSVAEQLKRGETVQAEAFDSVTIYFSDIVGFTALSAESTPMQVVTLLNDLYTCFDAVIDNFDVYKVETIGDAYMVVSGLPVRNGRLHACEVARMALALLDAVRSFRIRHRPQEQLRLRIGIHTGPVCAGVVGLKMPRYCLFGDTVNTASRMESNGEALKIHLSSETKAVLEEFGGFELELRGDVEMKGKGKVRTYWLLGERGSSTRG
Assay: Cell-free hNpr1 membrane cyclase assay (cGMP ELISA)
Type: biochemical
Details: Table 1; biochemical assay; read-out: IC50 biochem assay
What IC50 was measured for each of the following?
Answer by giving the amount and then stating its unit.

Asked: What IC50 appears in the records for this compound with hNpr1 (Homo sapiens, UniProt P16066)? CCC(CC)c1cc([C@H]2CN3CC[C@H]2C[C@@H]3CNS(=O)(=O)c2cccs2)nc(-c2ccncc2)n1
Given back: 3.98 µM

Asked: What IC50 appears in the records for this compound with hNpr1 (Homo sapiens, UniProt P16066)? O=C(NCc1cccnc1)c1cnc2[nH]nc(-c3ccccc3)c2n1
Given back: 0.122 µM

Asked: What IC50 appears in the records for this compound with hNpr1 (Homo sapiens, UniProt P16066)? N#Cc1ccccc1CN1CCCC(C(=O)NCc2ccccc2)CCNC(=O)CC1 (centres unmarked)
Given back: 1.19 µM

Asked: What IC50 appears in the records for this compound with hNpr1 (Homo sapiens, UniProt P16066)? Cc1nn2c(c1-c1ccccc1OCc1ccccc1)N(C(=O)Cc1ccccn1)CCC2
Given back: 2.17 µM

Asked: What IC50 appears in the records for this compound with hNpr1 (Homo sapiens, UniProt P16066)? Cc1noc(C)c1-c1cc(-c2ccccc2Oc2ccccc2)cn2cncc12
Given back: 0.141 µM

---

Biological target: mNpr1 (Mus musculus)
Construct: host or cells: HEK-293, transient co-transfection with pGS-40F
Sequence (P18293 29-1057): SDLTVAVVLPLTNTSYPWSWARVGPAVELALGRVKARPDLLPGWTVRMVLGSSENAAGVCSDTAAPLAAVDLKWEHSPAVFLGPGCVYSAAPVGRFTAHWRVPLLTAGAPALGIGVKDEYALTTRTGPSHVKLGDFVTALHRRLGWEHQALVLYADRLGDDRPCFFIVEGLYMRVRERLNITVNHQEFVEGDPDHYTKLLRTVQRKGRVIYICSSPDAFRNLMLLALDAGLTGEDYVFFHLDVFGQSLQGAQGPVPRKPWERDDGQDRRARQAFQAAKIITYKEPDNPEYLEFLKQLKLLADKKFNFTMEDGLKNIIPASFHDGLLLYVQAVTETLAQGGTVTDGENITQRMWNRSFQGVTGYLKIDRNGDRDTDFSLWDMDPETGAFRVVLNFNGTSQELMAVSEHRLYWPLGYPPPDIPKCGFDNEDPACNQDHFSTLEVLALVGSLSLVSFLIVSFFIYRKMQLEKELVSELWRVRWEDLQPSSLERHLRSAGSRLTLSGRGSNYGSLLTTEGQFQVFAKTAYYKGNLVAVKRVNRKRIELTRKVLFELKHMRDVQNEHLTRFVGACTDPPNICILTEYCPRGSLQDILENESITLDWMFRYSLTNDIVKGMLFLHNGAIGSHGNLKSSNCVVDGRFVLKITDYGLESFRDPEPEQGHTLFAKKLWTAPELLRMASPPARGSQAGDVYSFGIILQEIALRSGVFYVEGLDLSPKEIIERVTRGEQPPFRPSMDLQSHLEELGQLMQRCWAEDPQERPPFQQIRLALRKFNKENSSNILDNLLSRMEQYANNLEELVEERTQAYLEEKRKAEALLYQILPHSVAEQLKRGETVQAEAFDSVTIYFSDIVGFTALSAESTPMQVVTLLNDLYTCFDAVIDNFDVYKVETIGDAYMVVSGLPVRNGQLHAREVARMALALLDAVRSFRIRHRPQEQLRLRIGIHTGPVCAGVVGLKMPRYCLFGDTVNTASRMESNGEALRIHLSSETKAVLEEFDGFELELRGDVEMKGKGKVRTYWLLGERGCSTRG
Experiment: GloSensor assay, HEK-293 cells transiently expressing mNpr1 and pGS-40F
Assay type: cell-based
Details: 1 nM mNppb 5 minutes after compound; read-out: IC50 [μM] (mean ± SEM), mNpr1
Procedure: HEK-293 cells (American Type Culture Collection “ATTC,” Manassas, Va.) were cultured in DMEM/F12 supplemented with 2 mM L-glutamine, 10% FBS, 100 U/ml penicillin, and 100 μg/ml streptomycin. […] For Table 6, HEK-293 cells transiently expressing mNpr1 and pGS-40F were stimulated with 1 nM mNppb 5 minutes after addition of candidate compounds or A-71915 and luminescence was measured for 30 minutes. […]
measured property: log10 of IC50 (log10 of the value in µM)
log10 IC50, µM

Asked: Value lookup for log10 of IC50; key = N#Cc1ccccc1CN1CCCC(C(=O)NCc2ccccc2)CCNC(=O)CC1 (centres unmarked)
Given back: 1.00

Asked: Value lookup for log10 of IC50; key = Cc1cc(CNC(=O)c2ccc3c(c2)n(CC2CC2)c(=O)n3C2CCCCC2)on1
Given back: 0.69

Asked: Value lookup for log10 of IC50; key = CN(Cc1ccccc1)C(=O)c1cn2ccnc(-c3ccccc3)c2n1
Given back: 1.20

Asked: Value lookup for log10 of IC50; key = Cc1nn2c(c1-c1ccccc1Oc1ccccc1)N(C(=O)Cc1ccc3c(c1)OCO3)CCC2
Given back: 1.18

Asked: Value lookup for log10 of IC50; key = CCC(CC)c1cc([C@H]2CN3CC[C@H]2C[C@@H]3CNS(=O)(=O)c2cccs2)nc(-c2ccncc2)n1
Given back: 1.08

Asked: Value lookup for log10 of IC50; key = Cc1nn2c(c1-c1ccccc1OCc1ccccc1)N(C(=O)Cc1ccccn1)CCC2
Given back: 1.45

Asked: Value lookup for log10 of IC50; key = COc1ccccc1-c1n[nH]c2ncc(C(=O)NCc3cccnc3)nc12
Given back: 1.91

Asked: Value lookup for log10 of IC50; key = COc1ccc(C2(C(=O)N3CCC4(CC3)c3nccn3-c3ccccc3CN4C)CC2)cc1
Given back: 1.11

Asked: Value lookup for log10 of IC50; key = COc1cc(CN2CCC(C)(NC(C)=O)CC2)cc(-c2ccncc2)c1
Given back: 1.04

Asked: Value lookup for log10 of IC50; key = Cc1noc(C)c1-c1cc(-c2ccccc2Oc2ccccc2)cn2cncc12
Given back: 1.30

Asked: Value lookup for log10 of IC50; key = Cc1nn2c(c1-c1ccccc1OCc1ccccc1)N(C(=O)Cc1ccc3c(c1)OCO3)CCC2
Given back: 0.67
